target: Human sputum neutrophil elastase (Homo sapiens, UniProt P08246); assay: Inhibitor IC50 against human neutrophil elastase (fluorogenic MeOSuc-AAPV-AMC substrate); conditions: 20 min preincubation, read-out: HNE IC50
Sequence (P08246 30-247 limits assumed): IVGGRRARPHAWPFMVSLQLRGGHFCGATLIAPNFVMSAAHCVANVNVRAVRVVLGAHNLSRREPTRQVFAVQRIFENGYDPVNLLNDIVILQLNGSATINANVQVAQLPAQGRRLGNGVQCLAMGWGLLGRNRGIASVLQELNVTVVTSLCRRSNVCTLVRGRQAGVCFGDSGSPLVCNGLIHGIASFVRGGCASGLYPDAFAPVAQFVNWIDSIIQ
pIC50: −log10 of the molar value.
endpoint: pIC50

{"columns": ["chemical-string", "value-measured"],
 "data": [
  ["C#CCN1CCN(c2ncccc2-c2nc3cccc(CC)c3c(=O)o2)CC1", "> 7.82"],
  ["COc1cc(C2CC2)c2c(=O)oc(-c3cccnc3N(C)CCN(C)C)nc2c1", "6.82 to 7.21"],
  ["O=c1oc(-c2cccnc2-n2ccnc2)nc2cccc(Cl)c12", "< 6.82"]
]}

The reported numbers originate from patent US7879846B2.
